Exercise: state measured IC50 for each of the compounds provided.
TESTED ON: HDM2 (Homo sapiens, UniProt Q00987)
Construct: Thioredoxin (N); made in house; host or cells: E. coli strain BL21(DE3)Rosetta
Sequence (Q00987 17-125): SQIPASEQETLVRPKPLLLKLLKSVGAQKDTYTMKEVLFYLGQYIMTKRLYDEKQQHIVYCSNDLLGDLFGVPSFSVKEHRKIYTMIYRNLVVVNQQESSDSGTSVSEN
PROTOCOL DESCRIPTION: HDM2 FRET assay (inhibition of binding of FITC labeled p53-pocket peptide to HDM2)
MEASUREMENT CONDITIONS: Table 23; read-out: FRET IC50
Answers are plain numbers, in nM.

Solved cases below.
compound="CC1CCCCC1(F)c1nc2nc(-c3noc(=O)[nH]3)nc(-c3cncc(Cl)c3)c2n1C[C@H]1CC[C@H](C)CC1 (relative stereo)" observed=6.63
compound=C[C@H]1CC[C@H](Cn2c(C(=O)C3CCCCC3)nc3nc(-c4noc(=O)[nH]4)nc(-c4cccc(Cl)c4)c32)CC1 observed=13.9

Give IC50 for each listed item.
1. COC1(c2nc3nc(-c4n[nH]c(=O)o4)nc(-c4cncc(Cl)c4)c3n2C[C@H]2CC[C@H](C)CC2)CCCCC1C (relative stereo)
2. COC1(c2nc3nc(-c4noc(=O)[nH]4)nc(-c4cncc(Cl)c4)c3n2C[C@H]2CC[C@H](C)CC2)CCCC1
3. C[C@H]1CC[C@H](Cn2c(C3(F)CCCCC3)nc3nc(-c4n[nH]c(=O)o4)nc(-c4cncc(Cl)c4)c32)CC1
4. C[C@H]1CC[C@H](Cn2c(C3(c4ccccn4)CC3)nc3nc(-c4nc(=O)o[nH]4)nc(-c4cccc(Cl)c4)c32)CC1
5. COC(c1nc2nc(-c3noc(=O)[nH]3)nc(-c3cccc(Cl)c3)c2n1C[C@H]1CC[C@H](C)CC1)C1CCOCC1 (mixture of isomers)

output:
1. 8.8
2. 8.06
3. 10.7
4. 17
5. 13.3

###

Give measured pIC50 for each item. Keep answers brief.
TESTED ON: HDM2 (Homo sapiens, UniProt Q00987)
Construct: Thioredoxin (N); made in house; host or cells: E. coli strain BL21(DE3)Rosetta
PROTOCOL DESCRIPTION: HDM2 FRET assay (inhibition of binding of FITC labeled p53-pocket peptide to HDM2)
MEASUREMENT CONDITIONS: Table 6; read-out: FRET IC50
Numbers only, as −log10 of the molar value.

Would you please look over these solved cases?
compound="Cc1cccc(-c2nc3ncnc(NC(CC(=O)O)C4CC4)c3n2Cc2ccc(C(F)(F)F)cc2)c1 (centres unmarked)" endpoint_label=pIC50 observed=5.28
compound="COc1ccc(C)cc1-c1nc2nc(C(=O)O)nc(N[C@H](C)C3CC3(C)C)c2n1Cc1ccc(C(F)(F)F)cc1 (some centres unmarked)" endpoint_label=pIC50 observed=5.85
compound=CCCCCN(C)c1nc(C(=O)O)nc2nc(-c3cccc(C)c3)n(Cc3ccc(C(F)(F)F)cc3)c12 endpoint_label=pIC50 observed=6.14
compound=Cc1cccc(-c2nc3nc(C(=O)O)nc(NC(C)(C)C4CC4)c3n2Cc2ccc(Cl)cc2)c1 endpoint_label=pIC50 observed=5.78
compound="CCCC1CCCN1c1nc(C(=O)O)nc2nc(-c3cccc(C)c3)n(Cc3ccc(C(F)(F)F)cc3)c12 (centres unmarked)" endpoint_label=pIC50 observed=6.12
compound="Cc1cccc(-c2nc3nc(C(=O)O)nc(NC(C)C4CC4C)c3n2Cc2ccc(C(F)(F)F)cc2)c1 (centres unmarked) [Example 6.38]" endpoint_label=pIC50 observed=6.28

Batch: pIC50 for all items listed.
1. Cc1cccc(-c2nc3nc(C(=O)O)nc(N(C)C(C)C4CC4)c3n2Cc2ccc(Cl)cc2)c1 (centres unmarked)
2. Cc1cccc(-c2nc3nc(C(=O)O)nc(N4CCC4C4CCC4)c3n2Cc2ccc(C(F)(F)F)cc2)c1 (centres unmarked)
3. Cc1cccc(-c2nc3nc(C(=O)O)nc(N[C@@H](C)C(C)(C)C)c3n2Cc2ccc(C(F)(F)F)cc2)c1

output:
5.85
6.09
6.20

Below is a list of compounds. For each, state its recorded pIC50.
1. CCC(C)CNc1nc(C(=O)O)nc2nc(-c3cccc(C)c3)n(Cc3ccc(C(F)(F)F)cc3)c12 (centres unmarked)
2. Cc1cccc(-c2nc3nc(C(=O)O)nc(N[C@H](C)C4CC4)c3n2Cc2ccc(Cl)c(F)c2)c1
3. Cc1cccc(-c2nc3nc(C(=O)O)nc(NC4CCCCC4C)c3n2Cc2ccc(Br)cc2)c1 (centres unmarked) [Example 6.10]
4. Cc1cccc(-c2nc3nc(C(=O)O)nc(N4CCCC4C(C)C)c3n2Cc2ccc(C(F)(F)F)cc2)c1 (centres unmarked)
5. Cc1cccc(-c2nc3nc(C(=O)O)nc(N[C@H](C)C4CCC4)c3n2Cc2ccc(Cl)cc2)c1
6. Cc1cccc(-c2nc3nc(C(=O)O)nc(NC4CCCC4C)c3n2Cc2ccc(C(F)(F)F)cc2)c1 (centres unmarked)
7. Cc1cccc(-c2nc3nc(C(=O)O)nc(N(C)CC(C)(C)C)c3n2Cc2ccc(C(F)(F)F)cc2)c1

output:
6.14
7.59
5.98
6.14
7.86
6.37
6.05

Per the records, this compound ( Cc1cccc(-c2nc3nc(C(=O)O)nc(N[C@H](C)c4ccccc4)c3n2Cc2ccc(C(F)(F)F)cc2)c1 ) has pIC50 equal to 5.83

###

TESTED ON: HDM2 (Homo sapiens, UniProt Q00987)
Construct: Thioredoxin (N); made in house; host or cells: E. coli strain BL21(DE3)Rosetta
PROTOCOL DESCRIPTION: HDM2 FRET assay (inhibition of binding of FITC labeled p53-pocket peptide to HDM2)
MEASUREMENT CONDITIONS: 0.5 nM HDM2 (residues 17 to 125), 3nM peptide, two hour incubation at room temperature; read-out: FRET IC50
ENDPOINT LABEL: IC50 (nM)
One number for each entry, in nM.

chemical_structure=CS(=O)(=O)c1cc(Cl)cc(-c2nc(-c3noc(=O)[nH]3)nc3nc(N4CCOC[C@H]4c4ccccc4)n(C[C@H]4CC[C@H](C)CC4)c23)c1 endpoint_label=IC50 unit_info=nM observed=2.9
chemical_structure=COc1ccc(C)cc1-c1nc2nc(C(=O)O)nc(N[C@H](C)C3CCC3)c2n1C[C@H]1CC[C@H](C)CC1 endpoint_label=IC50 unit_info=nM observed=4.96
chemical_structure=COC(C)(C)[C@@H]1COCCN1c1nc2nc(-c3noc(=O)[nH]3)nc(-c3cccc(Cl)c3)c2n1C[C@H]1CC[C@H](C)CC1 endpoint_label=IC50 unit_info=nM observed=19.7
chemical_structure=COC[C@H](Nc1nc2nc(-c3noc(=O)[nH]3)nc(-c3cccc(Cl)c3)c2n1C[C@H]1CC[C@H](C)CC1)c1ccccc1 endpoint_label=IC50 unit_info=nM observed=2.87
chemical_structure=Cc1cccc(-c2nc(-c3n[nH]c(=O)o3)nc3nc(N4CCOC[C@H]4C)n(C[C@H]4CC[C@H](C)CC4)c23)c1 endpoint_label=IC50 unit_info=nM observed=60.5

Required: IC50, one value per compound below.
1. Cc1cc(Cl)cc(-c2nc(-c3noc(=O)[nH]3)nc3nc(N4CCOC[C@H]4c4ccccc4)n(C[C@H]4CC[C@H](C)CC4)c23)c1
2. CC(C)c1cc(-c2nc3nc(C(=O)O)nc(N[C@H](C)C4CCC4)c3n2C[C@H]2CC[C@H](C)CC2)[nH]c(=O)c1

output:
1. 1.56
2. 15.5

The reported IC50 value, HDM2 (Homo sapiens, UniProt Q00987), for C[C@H]1CC[C@H](Cn2c(N3CCO[C@@H]4CCC[C@H]43)nc3nc(-c4n[nH]c(=O)o4)nc(-c4cncc(Cl)c4)c32)CC1 reads 2.28

###

TESTED ON: HDM2 (Homo sapiens)
Construct: Thioredoxin (N); made in house; host or cells: E. coli strain BL21(DE3)Rosetta
PROTOCOL DESCRIPTION: FRET assay (HDM2 inhibition; method not described in this part)
Assay type: binding
MEASUREMENT CONDITIONS: Table 1
Sorting guide: entries reporting IC50 beneath 10 nM go in the label 1 pile, the rest go in the label 0 pile.

Answered cases to consult:
chemical_structure=Cc1ccc(OC(F)(F)F)c(-c2nc3nc(C(=O)O)nc(N[C@H](C)C4CCC4)c3n2Cc2ccc(C(F)(F)F)cc2)c1 class_name="label 1"
chemical_structure=Cc1cnc(-c2nc3nc(C(=O)O)nc(N[C@H](C)C4CCC4)c3n2Cc2ccc(C(F)(F)F)c(F)c2)cc1C(C)C class_name="label 0"
chemical_structure=Cc1c(-c2nc3nc(C(=O)O)nc(N[C@H](C)C4CCC4)c3n2Cc2ccc(C(F)(F)F)cc2)cnn1C class_name="label 0"
chemical_structure=C[C@@H](Nc1nc(C(=O)O)nc2nc(-c3cccc(C(F)(F)F)n3)n(Cc3ccc(C(F)(F)F)cc3)c12)C1CCC1 class_name="label 0"
chemical_structure=COc1ccnc(-c2nc3nc(C(=O)O)nc(N[C@H](C)C4CCC4)c3n2Cc2ccc(C(F)(F)F)cc2)c1 class_name="label 0"

input: For CCc1ccc(F)c(-c2nc3nc(C(=O)O)nc(N[C@H](C)C4CCC4)c3n2Cc2ccc(C(F)(F)F)cc2)c1 , is the recorded IC50 below the cut-off of 10 nM?
output: label 0

input: For this molecule, is IC50 lower than 10 nM? C[C@@H](Nc1nc(C(=O)O)nc2nc(-c3cc(CCC4CC4)ccn3)n(Cc3ccc(C(F)(F)F)cc3)c12)C1CCC1
output: label 1

input: I wonder whether Cc1ccnc(-c2nc3nc(C(=O)O)nc(N[C@H](C)C4CCC4)c3n2Cc2ccc(C(F)(F)F)cc2)c1 has IC50 below 10 nM. Can you tell?
output: label 0

input: Given the entry Cc1ccc(Cl)cc1-c1nc2nc(C(=O)O)nc(N[C@H](C)C3CCC3)c2n1Cc1ccc(C(F)(F)F)cc1 , would its reported IC50 be below 10 nM?
output: label 0

input: IC50 strictly < 10 nM for this molecule? Cc1cc(-c2nc3nc(C(=O)O)nc(N[C@H](C)C4CCC4)c3n2Cc2ccc(C(F)(F)F)cc2)ccc1F
output: label 0

input: Is it true that IC50 reported for C[C@@H](Nc1nc(C(=O)O)nc2nc(-c3cc(C4CCCC4)ccn3)n(Cc3ccc(C(F)(F)F)cc3)c12)C1CCC1 is less than 10 nM?
output: label 1

input: Lab note: confirm whether the reported IC50 for this molecule is below 10 nM, equality not counting. molecule: C[C@@H](Nc1nc(C(=O)O)nc2nc(-c3ccc(C4CCCCC4)cc3)n(Cc3ccc(C(F)(F)F)cc3)c12)C1CCC1
output: label 0

The reported numbers originate from patent EP2951180B1.
